For each of the compounds below, state its Inhibition rate.
# Tested on: xanthine oxidase
# assay_notes: Inhibition of xanthine oxidase (Method I)
# Format: biochemical, Enterobacter cloacae
# study_conditions: inhibitor 1 × 10^-4 M

// below: answered compounds
{"compound": "O=[N+]([O-])[O-].[Ag+] [AgNO3]", "result": "97.8%"}
{"compound": "O=C1O[C@H]([C@@H](O)CO)C(O)=C1O [L-ascorbic acid]", "result": "82.7%"}
{"compound": "O.O.O.O.O.O.O.O=S(=O)([O-])[O-].[Fe+2] [FeSO4.7H2 O]", "result": "92.3%"}
{"compound": "O.O.[Cl][Cu][Cl] [CuCl2.2H2 O]", "result": "96.3%"}
{"compound": "[Cl][Cu] [CuCl]", "result": "90.5%"}

So what's the measured Inhibition rate for this one? O=C([O-])c1cc[c]([Hg][Cl])cc1.[Na+] [PCMB]
76.6%

----------
So I've got a bunch of compounds here, and I need their Inhibition rate values.
# Tested on: xanthine oxidase
# assay_notes: Inhibition of xanthine oxidase (Method I)
# Assay type: biochemical, Enterobacter cloacae
# study_conditions: inhibitor 1 × 10^-5 M
Please make sure the unit comes right after the number.

{"cpd_smiles": "O=C1O[C@H]([C@@H](O)CO)C(O)=C1O", "Inhibition rate": "61.7%"}
{"cpd_smiles": "O.O.[Cl][Cu][Cl]", "Inhibition rate": "79.6%"}
{"cpd_smiles": "O=[N+]([O-])[O-].[Ag+]", "Inhibition rate": "98.2%"}
{"cpd_smiles": "[Cl][Cu]", "Inhibition rate": "53.5%"}
{"cpd_smiles": "O.O.O.O.O.O.O.O=S(=O)([O-])[O-].[Fe+2]", "Inhibition rate": "0%"}

Consider the additional compound presented here.
I am curious: what Inhibition rate value has been reported for "O=C([O-])c1cc[c]([Hg][Cl])cc1.[Na+]" ?
34.7%

----------
# System: xanthine oxidase
# assay_notes: Substrate specificity (formed hydrogen peroxide, Method II)
# Assay type: biochemical, Enterobacter cloacae
# study_conditions: activity on xanthine defined as 100; 0.1 ml of 5 mM substrate, 0.25 U/ml enzyme, pH 7.3, 37° C.
For each of the compounds below, state its Relative activity.
Numbers only, in %.

{"compound": "O=c1[nH]c(=O)c2ncn([C@@H]3O[C@H](CO)[C@@H](O)[C@H]3O)c2[nH]1", "assayed_system": "xanthine oxidase", "Relative activity / %": 0}
{"compound": "Nc1nc2nc[nH]c2c(=O)[nH]1", "assayed_system": "xanthine oxidase", "Relative activity / %": 53.3}
{"compound": "Nc1ncnc2nc[nH]c12", "assayed_system": "xanthine oxidase", "Relative activity / %": 0}
{"compound": "O=c1[nH]c(=O)c2[nH]cnc2[nH]1", "assayed_system": "xanthine oxidase", "Relative activity / %": 100}
{"compound": "Cn1cnc2c1c(=O)[nH]c(=O)n2C", "assayed_system": "xanthine oxidase", "Relative activity / %": 0}
{"compound": "Cn1c(=O)c2[nH]cnc2n(C)c1=O", "assayed_system": "xanthine oxidase", "Relative activity / %": 0}
{"compound": "c1ncc2[nH]cnc2n1", "assayed_system": "xanthine oxidase", "Relative activity / %": 23.3}
{"compound": "O=c1[nH]cnc2nc[nH]c12", "assayed_system": "xanthine oxidase", "Relative activity / %": 92.3}

// input: 5 compounds below; output: Relative activity for each
1. Oc1ncc2[nH]cnc2n1 [2-Hydroxypurine]
2. NC(=O)C1=CN([C@@H]2O[C@H](COP(=O)(O)OP(=O)(O)OC[C@H]3O[C@@H](n4cnc5c(N)ncnc54)[C@H](O)[C@@H]3O)[C@@H](O)[C@H]2O)C=CC1
3. O=c1[nH]c(=O)c2[nH]c(=O)[nH]c2[nH]1
4. Nc1nc2c(ncn2[C@@H]2O[C@H](CO)[C@@H](O)[C@H]2O)c(=O)[nH]1
5. Sc1ncnc2nc[nH]c12

88.5
0
0
0
4.4

Please state, for each entry, its recorded Relative activity.
1. Nc1ncnc2c1ncn2[C@@H]1O[C@H](CO)[C@@H](O)[C@H]1O
2. OC[C@H]1O[C@@H](n2cnc3c(O)ncnc32)[C@H](O)[C@@H]1O

2.5
0
